# experimentDescription: Partition coefficient (Log D), shake-flask
# conditionsUsed: octanol/water
metricName: logD at 1 h, 100 µM
One number for each entry.

Below are some molecules; for each one, tell me its logD at 1 h, 100 µM.
1. Cn1nnc(CN(Cc2ccc(N)c(Cl)c2)C(=O)NCC(=O)N2CCC[C@@H]2c2ccccc2Br)n1
2. CSc1ccccc1[C@H]1CCCN1C(=O)CNC(=O)N(Cc1ccc(N)c(Cl)c1)Cc1nnn(C)n1

1. 1.74
2. 1.53

Which measured logD at 1 h, 100 µM value corresponds to `CSc1ccccc1[C@H]1CCCN1C(=O)CNC(=O)N(Cc1cnc(N)nc1)Cc1ncc(C)s1` ? 1.27

====

Field: Kd. Provide a value for each of the compounds that follow.
# targetEntity: Cyp A (Homo sapiens)
# Sequence (P62937 whole entry): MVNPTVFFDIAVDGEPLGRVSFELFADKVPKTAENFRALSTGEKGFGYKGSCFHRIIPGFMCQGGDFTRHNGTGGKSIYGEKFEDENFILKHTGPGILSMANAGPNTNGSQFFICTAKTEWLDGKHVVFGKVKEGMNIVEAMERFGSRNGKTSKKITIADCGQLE

> print(dat)
                                   compound  valueobserved
1  CC(=O)NN=C1CN(Cc2cnc(N)c(Cl)c2)C(=O)N1CC(=O)N1CCC[C@@H]1c1ccccc1Br [Compound 19]        > 10 µM
2  CSc1ccccc1[C@H]1CCCN1C(=O)CN1C(=O)N(Cc2cnc(N)c(Cl)c2)CC1=NNC(C)=O [Compound 18]        > 10 µM

Continue with the compound presented below.
Reported Kd for Cyp A (Homo sapiens), given CC(=O)NN=C1CN(Cc2ccc(N)c(Cl)c2)C(=O)N1CC(=O)N1CCC[C@@H]1c1ccccc1Br [Compound 17] ? > 10 µM

====

# targetEntity: UniProt:P30405
# Sequence (P30405 42-207): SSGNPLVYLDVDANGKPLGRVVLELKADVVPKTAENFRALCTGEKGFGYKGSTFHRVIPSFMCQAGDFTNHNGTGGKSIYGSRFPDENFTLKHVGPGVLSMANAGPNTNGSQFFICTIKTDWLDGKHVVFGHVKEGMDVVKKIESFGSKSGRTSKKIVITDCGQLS
pKd: −log10 of the molar value.
metricName: pKd

> print(dat)
                    compoundstructurestring    targetentity  metricname  valueobserved
1  CSc1ccccc1[C@H]1CCCN1C(=O)CN1C(=O)N(Cc2cnc(N)c(Cl)c2)CC1=NNC(C)=O  UniProt:P30405         pKd         < 5.00
2  CC(=O)NN=C1CN(Cc2cnc(N)c(Cl)c2)C(=O)N1CC(=O)N1CCC[C@@H]1c1ccccc1Br  UniProt:P30405         pKd         < 5.00

Continue with the molecule presented below.
Which measured pKd value corresponds to `CC(=O)NN=C1CN(Cc2ccc(N)c(Cl)c2)C(=O)N1CC(=O)N1CCC[C@@H]1c1ccccc1Br` ? < 5.00
